# credit: PubChem BioAssay

- Tested system: ATP-binding cassette sub-family B member 6 (Homo sapiens)
- Assay summary: ABCB6 transporter inhibitors, pilot screen, K562-ABCB6 cells, flow cytometry, validation set (AID 588550);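 also: 0% = DMSO wells and 100% = benzethonium chloride 70 µM positive control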
- Condition description: K562-ABCB6 porphyrin accumulation, 1 h, at 10 µM, active compounds read high
Documented inhibition across a set of molecules

[
  {
    "Structure smiles string": "Cn1c(=O)[nH]c(=O)c2c1nc(Br)n2CCCO",
    "Unit annotation": "%",
    "inhibition": 8
  },
  {
    "Structure smiles string": "COc1ccc(NC(=S)NCCc2c[nH]c3ccccc23)cc1",
    "Unit annotation": "%",
    "inhibition": 8
  },
  {
    "Structure smiles string": "CC(C)(C)[C@]1(O)CCN2C[C@H]3c4ccccc4CCc4cccc(c43)[C@@H]2C1",
    "Unit annotation": "%",
    "inhibition": 6
  },
  {
    "Structure smiles string": "CC(=O)OCC(=O)[C@@]12OC3(CCCC3)O[C@@H]1C[C@H]1[C@@H]3CCC4=CC(=O)C=C[C@]4(C)[C@@]3(F)[C@@H](O)C[C@@]12C",
    "Unit annotation": "%",
    "inhibition": 6
  },
  {
    "Structure smiles string": "c1ccc2c(CC3=NCCN3)cccc2c1",
    "Unit annotation": "%",
    "inhibition": 11
  }
]
